molecular target: human kisspeptin receptor (KISS1R) (human), Q969F8; test: radioligand competition, hKISS1R membranes; legend: B is 10-100 nM
Sequence (Q969F8 whole entry): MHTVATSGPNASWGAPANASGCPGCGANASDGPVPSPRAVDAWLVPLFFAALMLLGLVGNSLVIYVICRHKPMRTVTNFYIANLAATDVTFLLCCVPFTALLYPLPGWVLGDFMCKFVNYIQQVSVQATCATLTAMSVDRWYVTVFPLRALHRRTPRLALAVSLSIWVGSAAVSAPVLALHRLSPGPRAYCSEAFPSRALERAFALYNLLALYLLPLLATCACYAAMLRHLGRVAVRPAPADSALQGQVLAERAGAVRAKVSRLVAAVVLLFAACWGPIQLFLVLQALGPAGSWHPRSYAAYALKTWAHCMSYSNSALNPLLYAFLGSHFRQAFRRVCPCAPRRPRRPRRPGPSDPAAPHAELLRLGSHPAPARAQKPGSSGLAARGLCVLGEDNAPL
Numbered stars: 1 amine (or outer) side, 2 acyl side, 3 side chain; on linkers, the order of the positions; unused ones are H or OH. Square brackets hold non-standard residues; d marks the D form. * marks the point of attachment. X2 = 4‑amino‑1‑((3-fluoro-4-methylbenzyl)glycyl)piperidine‑4‑carboxylic acid, Cc1ccc(CN(CC(=O)N2CCC(N[*:1])(C(=O)[*:2])CC2)[*:3])cc1F; DOTA = O=C(O)CN1CCN(CC(=O)O)CCN(CC(=O)*)CCN(CC(=O)O)CC1; Api(1-amidino) = N=C(N)N1CCC(N)(C(=O)O)CC1; 4Pal = N[C@@H](Cc1ccncc1)C(=O)O; 4Amb = NCc1ccc(C(=O)O)cc1; Octanoyl = CCCCCCCC(=O)*; azaGly = NNC(=O)O; βAla = NCCC(=O)O
Recorded metric: Ki

The cases that follow already have their Ki on record.
Binder | Ki
{DOTA-4Amb}-F[azaGly][dL][X2]W-NH2 (SMILES Cc1ccc(CNCC(=O)N2CCC(NC(=O)[C@@H](CC(C)C)NC(=O)NNC(=O)[C@H](Cc3ccccc3)NC(=O)c3ccc(CNC(=O)CN4CCN(CC(=O)O)CCN(CC(=O)O)CCN(CC(=O)O)CC4)cc3)(C(=O)N[C@@H](Cc3c[nH]c4ccccc34)C(N)=O)CC2)cc1F) [Compound 260] | 10 to 100 nM
{DOTA}-[βAla][dN][dN][dN][dN][dN]F[azaGly]L[X2]W-NH2 (SMILES Cc1ccc(CNCC(=O)N2CCC(NC(=O)[C@H](CC(C)C)NC(=O)NNC(=O)[C@H](Cc3ccccc3)NC(=O)[C@@H](CC(N)=O)NC(=O)[C@@H](CC(N)=O)NC(=O)[C@@H](CC(N)=O)NC(=O)[C@@H](CC(N)=O)NC(=O)[C@@H](CC(N)=O)NC(=O)CCNC(=O)CN3CCN(CC(=O)O)CCN(CC(=O)O)CCN(CC(=O)O)CC3)(C(=O)N[C@@H](Cc3c[nH]c4ccccc34)C(N)=O)CC2)cc1F) [Compound 14] | 10 to 100 nM

Query binder follows.
Consider the binder shown here: Octanoyl-K(DOTA)NTF[azaGly]L[Api(1-amidino)][4Pal]-NH2 (SMILES CCCCCCCC(=O)N[C@@H](CCCCNC(=O)CN1CCN(CC(=O)O)CCN(CC(=O)O)CCN(CC(=O)O)CC1)C(=O)N[C@@H](CC(N)=O)C(=O)N[C@H](C(=O)N[C@@H](Cc1ccccc1)C(=O)NNC(=O)N[C@@H](CC(C)C)C(=O)NC1(C(=O)N[C@@H](Cc2ccncc2)C(N)=O)CCN(C(=N)N)CC1)[C@@H](C)O) [Compound 226] What is its recorded Ki?
10 to 100 nM

Numbers sourced from patent US20250312499A1.
